test system: SF-539 CNS; assay: NCI-60 one-dose screen, 48 h; settings: 10 µM unless noted
Compounds without any hit were thinned out: in the full panel of roughly 83,000, 20% have a hit. Calls of active or inactive are those of the source. The calls were made as follows: active = growth percent below 10; inactive = the rest.
Lab note: assign the record to one of TRUE = active, FALSE = inactive

**Query** Hi, do you know how `COc1ccc(C(=O)c2cc(C(C)=O)c3c(C)cc(C)cn23)cc1` came out in this test?
**Result** FALSE

**Query** Would you mind doing `CS(=O)(=O)Nc1cccc(-n2cnc3cc(-c4ccc(O)cc4)ccc32)c1` as well?
**Result** TRUE

**Query** Next up: `COc1ccc2[nH]cc(-c3cc4nc(-c5cn(C)c6ncc(Br)cc56)cc(N)n4n3)c2c1`
**Result** TRUE

**Query** Next molecule up: `COc1ccc2[nH]c(O)c(N=Nc3nc(-c4ccc(C#N)cc4)cs3)c2c1`
**Result** FALSE

**Query** Same lookup for `O=C1N/C(=N\c2nccs2)S/C1=C\c1ccc([N+](=O)[O-])cc1` , please.
**Result** TRUE

**Query** What about this molecule? `FC(F)(F)c1cc2c(Cl)ncnc2n1CCC1CCOCC1`
**Result** FALSE

**Query** Ok, now `COc1cc(/C=C/C(=O)c2cnn(-c3cc(=O)[nH]c4ccccc34)c2C)cc(OC)c1OC`
**Result** TRUE

**Query** Subsequent entry: `N#Cc1cc(-c2ccc3ncnc(N4CCc5cc(F)c(Cl)cc54)c3c2)cnc1N`
**Result** FALSE

**Query** Next molecule up: O=C1CCC(N2C(=O)c3cccc(NCCCCCC(=O)N4CCN(c5ccc6nc7c(nc6c5C(F)(F)F)C(=O)c5ncccc5C7=O)CC4)c3C2=O)C(=O)N1 (configuration not stated)
**Result** TRUE

**Query** And the next one, `O=C1/C(=C/c2cnc(-c3ccccc3)s2)SC(=S)N1Cc1ccc2c(c1)OCO2` ?
**Result** FALSE

**Query** Also CCOC(=O)/C(F)=C/C1CC1CCc1ccc(OCC)cc1 (configuration not stated) ?
**Result** FALSE

**Query** Same for `COc1cc(/C=C/C(=O)c2cnn(-c3cc(=O)[nH]c4ccc(Br)cc34)c2C)cc(OC)c1OC`
**Result** TRUE

**Query** Cool, now CN1C(=O)C(O)(CC(=O)c2cc3ccccc3oc2=O)c2ccccc21 (configuration not stated)
**Result** FALSE

**Query** Then this molecule: `CCCCCCCCCc1ccc(C(=O)Nc2cc(C)ccc2C(=O)OC)cc1`
**Result** FALSE

**Query** Input `CCC(=O)c1cc(C(=O)OC)c2ccc3c4ccccc4ccc3n12`
**Result** FALSE

**Query** Then this molecule: `S=C(Nc1ccccc1)Nc1ccc(OCc2nc3ccc(Cl)cc3[nH]2)cc1`
**Result** FALSE

**Query** # iterate: `Cc1ccc(C(=O)Nc2ccc(-n3ccnc3)c(C(F)(F)F)c2)cc1C#Cc1cnc2cccnn12`
**Result** TRUE

**Query** Proceed to `Cn1cc(-c2cc3nc(-c4c[nH]c5ccccc45)cc(N)n3n2)c2ccccc21`
**Result** TRUE

**Query** Okay, and `COc1ccc(-c2nc3ccccc3n2CC(=O)N=Nc2c(O)[nH]c3ccc(OC)cc23)cc1` ?
**Result** TRUE

**Query** Similarly, `CN1CCN(C(=O)Oc2cc3c(c4ccccc24)[C@H](CCl)CN3C(=O)c2cc3cc(OCCCN4CCC4)ccc3[nH]2)[C@@H]2CSSC[C@H]21` ?
**Result** TRUE

**Query** // query: `COc1ccc(NC(=O)N/N=C/c2c[nH]c3ccccc23)cc1`
**Result** TRUE

**Query** Moving on to `O=C(NN1C(=O)/C(=C/C=C/c2ccc([N+](=O)[O-])o2)SC1=S)c1ccc([N+](=O)[O-])cc1`
**Result** TRUE

**Query** Please answer likewise for `COc1ccc(-c2nc3ccc(-c4nnc(SCc5ccccc5)o4)cc3[nH]2)cc1`
**Result** TRUE

**Query** What would you report for CCOc1ccccc1[C@H]1C(C(=O)c2ccc(Cl)cc2)C2(N[C@@H]1c1ccccc1)C(=O)Nc1ccc(Br)cc12 (some centres not stated) ?
**Result** TRUE

**Query** Param item: O=C(c1ccc(O)cc1)C1[C@H](c2ccc(Cl)cc2)[C@@H](c2ccccc2)NC12C(=O)Nc1ccc(Br)cc12 (some centres not stated)
**Result** TRUE

**Query** Try the molecule `COc1ccc(-c2cc(C)nc3[nH]c(=O)sc23)cc1`
**Result** FALSE

**Query** Please do the same for `Cn1cc(-c2cc3nc(-c4cn(C)c5ncccc45)cc(N)n3n2)c2cc(F)ccc21` as well.
**Result** FALSE

**Query** Field entry: COc1ccc(NC(=O)NN2C(=O)c3ccccc3N(C)C2c2ccc(OC)cc2)cc1 (configuration not stated)
**Result** FALSE

**Query** Also, `O=c1c(-c2nc(-c3ccccc3)c(-c3ccccc3)[nH]2)coc2ccc(F)cc12` please.
**Result** FALSE

**Query** Input `O=C(Nc1ccc(Br)cc1)Nc1ccc(-c2ccc3c(c2)NC(=O)/C3=C\c2ccc[nH]2)cc1`
**Result** FALSE

**Query** Now this one: `Cc1ccc(C(=O)Nc2cc(-n3ccnc3C)cc(C(F)(F)F)c2)cc1C#Cc1cnc2cccnn12`
**Result** TRUE

**Query** Now the same for `CS(=O)(=O)Nc1cc(-c2ccc3ncnc(Nc4ccc(OCc5cccnc5)c(Cl)c4)c3c2)cnc1Cl`
**Result** TRUE

**Query** Please answer likewise for `Cc1ccc(Nc2nnc(-c3c[nH]c4ccccc34)o2)c(C)c1`
**Result** TRUE

**Query** How about this molecule: `O=C(Cn1c(-c2ccccc2)nc2ccccc21)N=Nc1c(O)[nH]c2ccc(Cl)cc12`
**Result** TRUE

**Query** Query N#CC1=C(c2ccco2)Nc2c(c(-c3ccccc3)nn2-c2ccccc2)C12C(=O)Nc1ccc(Br)cc12 (configuration not stated) next
**Result** TRUE

**Query** Would you mind doing `CCCCNc1ccc2c3c(cccc13)C(=O)N(c1cccc(-c3nn(-c4ccccc4)cc3-c3nc4ccccc4s3)c1)C2=O` as well?
**Result** FALSE

**Query** Try this molecule next: `O=C1Nc2ccc(F)cc2/C1=C/C(=O)c1cc2ccccc2oc1=O`
**Result** FALSE
